The measured values listed here are drawn from patent US20090099376A1.

Assay: Solubility at RT in hydrogenation solvent mixtures doped with IPA
Assay type: physicochemical
Conditions: 80:20 water:methanol with 4% wt/wt IPA, aqueous with cosolvent or surfactant or cyclodextrin; Exp. 7: +4% wt/wt IPA, 80:20 water:methanol
MEASURED_PARAMETER: solubility

Query: Need solubility of `CN(C)c1cc([N+](=O)[O-])c(O)c2c1C[C@H]1C[C@H]3[C@H](N(C)C)C(O)=C(C(N)=O)C(=O)[C@@]3(O)C(O)=C1C2=O` , thanks.
Response: > 426 mg/mL

====

Test: Solubility at RT in hydrogenation solvent mixtures doped with IPA
Format: physicochemical
Details: 80:20 water:methanol with 20% wt/wt IPA, aqueous with cosolvent or surfactant or cyclodextrin; Exp. 8: +20% wt/wt IPA, 80:20 water:methanol
Text: An investigation by examining the solubility characteristics of 9-nitrominocycline and 9-aminominocycline sulfate in the presence of various amounts of IPA to gauge whether the starting material and/or product could in fact precipitate out in the reaction solvent was initiated.
MEASURED_PARAMETER: solubility (mg/mL)
One number for each entry, in mg/mL.

Query: Report solubility for CN(C)c1cc(N)c(O)c2c1C[C@H]1C[C@H]3[C@H](N(C)C)C(O)=C(C(N)=O)C(=O)[C@@]3(O)C(O)=C1C2=O [9-aminominocycline] please.
Response: 243

====

Assay: Solubility at RT in hydrogenation solvent mixtures doped with IPA
Format: physicochemical
Settings: v:v) with 50% wt/wt IPA, organic solvent or mixture; Exp. 5: MeOH:water (99:1, v:v) +50% wt/wt IPA
Record form. Attribute: solubility. Fill in for each entry.
Answers are plain numbers, in mg/mL.

1) CN(C)c1cc(N)c(O)c2c1C[C@H]1C[C@H]3[C@H](N(C)C)C(O)=C(C(N)=O)C(=O)[C@@]3(O)C(O)=C1C2=O [9-aminominocycline]    7

Query: Requested read-out: solubility. Entry: CN(C)c1cc([N+](=O)[O-])c(O)c2c1C[C@H]1C[C@H]3[C@H](N(C)C)C(O)=C(C(N)=O)C(=O)[C@@]3(O)C(O)=C1C2=O [9-nitrominocycline]
Response: 23

====

Experiment: Solubility at RT in hydrogenation solvent mixtures doped with IPA
Type: physicochemical
Settings: v:v) with 0% wt/wt IPA, organic solvent or mixture; Exp. 1: MeOH:water (99:1, v:v) +0% wt/wt IPA
MEASURED_PARAMETER: solubility (mg/mL)
Answers are plain numbers, in mg/mL.

Query: # input compound: CN(C)c1cc(N)c(O)c2c1C[C@H]1C[C@H]3[C@H](N(C)C)C(O)=C(C(N)=O)C(=O)[C@@]3(O)C(O)=C1C2=O [9-aminominocycline] ; wanted: its solubility
Response: 14

====

Give solubility for every item shown.
Assay: Solubility at RT in hydrogenation solvent mixtures doped with IPA
Format: physicochemical
Conditions: v:v) with 35% wt/wt IPA, organic solvent or mixture; Exp. 4: MeOH:water (99:1, v:v) +35% wt/wt IPA
One number for each entry, in mg/mL.

1) CN(C)c1cc(N)c(O)c2c1C[C@H]1C[C@H]3[C@H](N(C)C)C(O)=C(C(N)=O)C(=O)[C@@]3(O)C(O)=C1C2=O [9-aminominocycline]    9

Let us examine a further case.
Query: Reported solubility for CN(C)c1cc([N+](=O)[O-])c(O)c2c1C[C@H]1C[C@H]3[C@H](N(C)C)C(O)=C(C(N)=O)C(=O)[C@@]3(O)C(O)=C1C2=O [9-nitrominocycline] : what is it?
Response: 30

====

Experiment: Solubility at RT in hydrogenation solvent mixtures doped with IPA
Type: physicochemical
Settings: v:v) with 4% wt/wt IPA, organic solvent or mixture; Exp. 2: MeOH:water (99:1, v:v) +4% wt/wt IPA
Please respond with reported solubility for every item in the list.
Give bare numbers, in mg/mL.

1) CN(C)c1cc(N)c(O)c2c1C[C@H]1C[C@H]3[C@H](N(C)C)C(O)=C(C(N)=O)C(=O)[C@@]3(O)C(O)=C1C2=O    16

Query: Fill in: solubility of `CN(C)c1cc([N+](=O)[O-])c(O)c2c1C[C@H]1C[C@H]3[C@H](N(C)C)C(O)=C(C(N)=O)C(=O)[C@@]3(O)C(O)=C1C2=O` is ___
Response: 129

====

Experiment: Solubility at RT in hydrogenation solvent mixtures doped with IPA
Assay type: physicochemical
Conditions: organic solvent or mixture; Exp. 11: IPA Only
MEASURED_PARAMETER: solubility (µg/mL)
Answers are plain numbers, in µg/mL.

Query: For the molecule shown here, CN(C)c1cc(N)c(O)c2c1C[C@H]1C[C@H]3[C@H](N(C)C)C(O)=C(C(N)=O)C(=O)[C@@]3(O)C(O)=C1C2=O [9-aminominocycline] , give the reported solubility.
Response: 1000

====

Assay: Solubility at RT in hydrogenation solvent mixtures doped with IPA
Assay type: physicochemical
Settings: 80:20 water:methanol with 50% wt/wt IPA, aqueous with cosolvent or surfactant or cyclodextrin; Exp. 10: +50% wt/wt IPA, 80:20 water:methanol
MEASURED_PARAMETER: solubility (mg/mL)
Numbers only, in mg/mL.

1. CN(C)c1cc([N+](=O)[O-])c(O)c2c1C[C@H]1C[C@H]3[C@H](N(C)C)C(O)=C(C(N)=O)C(=O)[C@@]3(O)C(O)=C1C2=O [9-nitrominocycline]    333

Query: Give the measured solubility of CN(C)c1cc(N)c(O)c2c1C[C@H]1C[C@H]3[C@H](N(C)C)C(O)=C(C(N)=O)C(=O)[C@@]3(O)C(O)=C1C2=O [9-aminominocycline] .
Response: 58

====

Assay: Solubility at RT in hydrogenation solvent mixtures doped with IPA
Format: physicochemical
Conditions: 80:20 water:methanol with 0% wt/wt IPA, aqueous with cosolvent or surfactant or cyclodextrin; Exp. 6: +0% wt/wt IPA, 80:20 water:methanol
MEASURED_PARAMETER: solubility

Query: I am curious: what solubility value has been reported for CN(C)c1cc([N+](=O)[O-])c(O)c2c1C[C@H]1C[C@H]3[C@H](N(C)C)C(O)=C(C(N)=O)C(=O)[C@@]3(O)C(O)=C1C2=O [9-nitrominocycline] ?
Response: > 421 mg/mL
